Here, each record is paired with measured fold difference in affinity vs original data.
# Assayed target: binding partner of C5A (XPA23)
# Protocol summary: Biacore
Please reply with the bare figure in fold and do not write the unit itself.

Examples with answers:
C5A (XPA23) VH N104V (antibody, V domains shown) VH: EVQLLESGGGLVQPGGSLRLSCAASGFTFSKYFMFWVRQAPGKGLEWVSVISPSGGMTRYADSVKGRFTISRDNSKNTLYLQMNSLRAEDTAVYYCARVGYGGVSDYWGQGTLVTVSS VL: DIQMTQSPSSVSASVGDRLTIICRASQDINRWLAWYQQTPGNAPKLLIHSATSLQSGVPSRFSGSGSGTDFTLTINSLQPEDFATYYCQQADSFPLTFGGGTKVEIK : 1.27
C5A (XPA23) VH S54L (antibody, V domains shown) VH: EVQLLESGGGLVQPGGSLRLSCAASGFTFSKYFMFWVRQAPGKGLEWVSVISPLGGMTRYADSVKGRFTISRDNSKNTLYLQMNSLRAEDTAVYYCARVGYGGNSDYWGQGTLVTVSS VL: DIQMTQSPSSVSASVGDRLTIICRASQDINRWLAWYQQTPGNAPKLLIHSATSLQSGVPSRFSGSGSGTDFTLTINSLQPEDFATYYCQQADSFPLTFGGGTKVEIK : 0.91
C5A (XPA23) VH F33A (antibody, V domains shown) VH: EVQLLESGGGLVQPGGSLRLSCAASGFTFSKYAMFWVRQAPGKGLEWVSVISPSGGMTRYADSVKGRFTISRDNSKNTLYLQMNSLRAEDTAVYYCARVGYGGNSDYWGQGTLVTVSS VL: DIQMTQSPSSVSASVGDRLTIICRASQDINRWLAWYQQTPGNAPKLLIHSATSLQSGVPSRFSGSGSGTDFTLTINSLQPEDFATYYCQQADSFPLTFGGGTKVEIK : 0.75
C5A (XPA23) VH T58I (antibody, V domains shown) VH: EVQLLESGGGLVQPGGSLRLSCAASGFTFSKYFMFWVRQAPGKGLEWVSVISPSGGMIRYADSVKGRFTISRDNSKNTLYLQMNSLRAEDTAVYYCARVGYGGNSDYWGQGTLVTVSS VL: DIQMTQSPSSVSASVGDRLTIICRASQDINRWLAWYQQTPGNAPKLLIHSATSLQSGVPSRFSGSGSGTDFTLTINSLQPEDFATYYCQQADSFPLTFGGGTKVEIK : 0.95
C5A (XPA23) VH S30I (antibody, V domains shown) VH: EVQLLESGGGLVQPGGSLRLSCAASGFTFIKYFMFWVRQAPGKGLEWVSVISPSGGMTRYADSVKGRFTISRDNSKNTLYLQMNSLRAEDTAVYYCARVGYGGNSDYWGQGTLVTVSS VL: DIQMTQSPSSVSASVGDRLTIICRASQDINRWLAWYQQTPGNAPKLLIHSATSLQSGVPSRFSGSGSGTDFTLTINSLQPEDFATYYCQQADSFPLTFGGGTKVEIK : 0.08
C5A (XPA23) VH Y32P (antibody, V domains shown) VH: EVQLLESGGGLVQPGGSLRLSCAASGFTFSKPFMFWVRQAPGKGLEWVSVISPSGGMTRYADSVKGRFTISRDNSKNTLYLQMNSLRAEDTAVYYCARVGYGGNSDYWGQGTLVTVSS VL: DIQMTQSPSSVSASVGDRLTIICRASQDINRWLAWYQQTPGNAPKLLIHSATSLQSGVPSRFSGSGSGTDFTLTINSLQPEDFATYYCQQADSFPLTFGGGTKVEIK : 0.68
C5A (XPA23) VH F33L (antibody, V domains shown) VH: EVQLLESGGGLVQPGGSLRLSCAASGFTFSKYLMFWVRQAPGKGLEWVSVISPSGGMTRYADSVKGRFTISRDNSKNTLYLQMNSLRAEDTAVYYCARVGYGGNSDYWGQGTLVTVSS VL: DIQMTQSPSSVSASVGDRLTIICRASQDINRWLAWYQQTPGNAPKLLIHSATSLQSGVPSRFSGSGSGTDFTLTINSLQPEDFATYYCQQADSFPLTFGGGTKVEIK : 0.88
C5A (XPA23) VH S30G (antibody, V domains shown) VH: EVQLLESGGGLVQPGGSLRLSCAASGFTFGKYFMFWVRQAPGKGLEWVSVISPSGGMTRYADSVKGRFTISRDNSKNTLYLQMNSLRAEDTAVYYCARVGYGGNSDYWGQGTLVTVSS VL: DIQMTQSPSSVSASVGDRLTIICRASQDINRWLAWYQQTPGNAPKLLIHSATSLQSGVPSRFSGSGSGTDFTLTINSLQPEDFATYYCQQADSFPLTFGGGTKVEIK : 0.13
C5A (XPA23) VH F33T (antibody, V domains shown) VH: EVQLLESGGGLVQPGGSLRLSCAASGFTFSKYTMFWVRQAPGKGLEWVSVISPSGGMTRYADSVKGRFTISRDNSKNTLYLQMNSLRAEDTAVYYCARVGYGGNSDYWGQGTLVTVSS VL: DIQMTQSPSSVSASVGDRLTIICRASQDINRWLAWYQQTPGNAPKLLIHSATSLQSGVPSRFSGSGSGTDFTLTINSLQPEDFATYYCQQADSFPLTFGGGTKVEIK : 0.78

Okay, now this binder:
# input fold difference in affinity vs original lookup needed for C5A (XPA23) VH S52A (antibody, V domains shown) VH: EVQLLESGGGLVQPGGSLRLSCAASGFTFSKYFMFWVRQAPGKGLEWVSVIAPSGGMTRYADSVKGRFTISRDNSKNTLYLQMNSLRAEDTAVYYCARVGYGGNSDYWGQGTLVTVSS VL: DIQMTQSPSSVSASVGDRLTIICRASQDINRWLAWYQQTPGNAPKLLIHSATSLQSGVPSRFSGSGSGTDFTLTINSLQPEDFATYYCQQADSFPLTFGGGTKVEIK , thanks.
# output 0.05
